B1: TPR t1 (parent)
chain: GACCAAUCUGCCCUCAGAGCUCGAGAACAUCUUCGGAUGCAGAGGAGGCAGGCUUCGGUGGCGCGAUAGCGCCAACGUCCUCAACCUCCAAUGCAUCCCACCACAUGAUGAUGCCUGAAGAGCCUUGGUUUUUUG

variants of: B1; experiment: polymerase ribozyme fitness, log enrichment relative to wild type (log ratio); higher = more active; in vitro selection for triplet polymerase activity
variants and their reported polymerase ribozyme fitness (log ratio)
Returns: the value as a bare number; no unit string appended.

These solved cases illustrate the format of a correct answer.
Input GACCAAUCUGCCCUCAGAGCUCGAGAACAUCUUCGGAUGCAGAGGAGGCAGGCUUCGGCGGCGCGAUAGCGCCAACGUCCGCAACCUCCAAUGCAUCCCACCACAUGAUGAUGCCUGAAGAGCCUUGGUUUUUUG [U59C U81G] . Output polymerase ribozyme fitness (log ratio): -3.51

Input GACCAAUCUGCCCUCAGAGCUCGAAAACAUCUUCGGAUGUAGAGGAGGCAGGCUUCGGUGGCGCGAUAGCGCCAACGUCCUCAACCUCCAAUCCAUCCCAUCAGAUGAUGAUGCUUGGAGAGCCUUGGUUUUUUG [G25A C40U G93C C101U C104G C115U A118G] . Output polymerase ribozyme fitness (log ratio): -6.52

Input GACCAAUCUGCCCUCAGAGCUCGAGAACGUCUUCGGAUGCAGAGGAGGCAGGCUUCGGUGGCGCGAUAGCGCCAACGUCCUCAACCCCCAAUGCAUCCCACCACAUGAUGAUUCCUGAAGCGCCUUGGUUUUUUG [A29G U87C G113U A121C] . Output polymerase ribozyme fitness (log ratio): -3.46

New cases:
Input GACCAAUCUGCCCUCAGAGCUCGAGAACAUCUUCGGAUGCAGAGGAGGCAGGCUUCGGUGGCGCGAUAGCGCCUACGUCCUCAACCUCCAAUGCAUCCCACCACAUGACGAUGCCUGAAGAGCCUUGGUUUUUUG [A74U U109C] . Output polymerase ribozyme fitness (log ratio): -4.13

Input GACCAAUCUGCCCUCAGAGCUCGAGAACAUCUUCGGAUGCAGAGGAGGCAGGCUUCGGUGGCGCGAUAGCGCCAACGUACUCAACCUCCAAUGCAUCCCACCACAUGAUGAUGCAUGAAGAGCCUUGGUUUUUUG [C79A C115A] . Output polymerase ribozyme fitness (log ratio): -2.1

Input GACCAAUCUGCCCUCAGAGCUCGAGAACAUCUUCGGAUGCAGAGGAGGCAGGCUUCGGUGGUGCGAUAGCGCCAACGUCCUCAACCUCCAAUGCAUCCCACCACAUGAUGAUGGCUGAAGCGCCUUGGUUUUUUA [C62U C114G A121C G135A] . Output polymerase ribozyme fitness (log ratio): -1.63

Input GACCAAUCUGCCCUAAGAGCUCGAGAACAUCUUCGGAUGCAGAUGAGGCAGGCUUCGGUGGCGCGAUAGCGCCAACGUCCUCAACCUCCAAUGCAUCCCACCACAUGAUGAUGCCUGAAGAGCCUUGGUUUUUUG [C15A G44U] . Output polymerase ribozyme fitness (log ratio): -2.85

Input GACCAAUCUGCCCUCAGAUCUCGAGAACAUCUUCGGAUGCGGAGGAGGCAGGCUUCGGUGGCUCGAUAGCGCCAACGUCCUCAACCUCCAAUGCAUCCCACCACAUGAUGAUGCCUGAAGAGCCUUGGUUUUUUG [G19U A41G G63U] . Output polymerase ribozyme fitness (log ratio): -4.85

Input GACCAAUCUGCCCUCAGACCUCGAGAACAUCUUCGGAUGCAGAGGAGGCAGGCUUCGGUGCCGCGAUAGCGCCAACGUCCUCAACCUACAAUGCAUCCCACCACAUGAUGAUGCCUGAAGAGCCUUGGUUUUUUG [G19C G61C C88A] . Output polymerase ribozyme fitness (log ratio): -4.49

Input GACCAAUCUGCCCUCAGAGCUCGAGAACAUCUUCGGAUGCAGAGGAGGCAGGCUUCGGUGGCGCGAUAGUGCCGACGUCCUCAACCUCCAAUGCAUCCCACCACAUGAUGAUGCCUGAACAGCCUUGGUUUUUUG [C70U A74G G120C] . Output polymerase ribozyme fitness (log ratio): -1.57

Input GACCAAUCUGCCCUCAGAGCUCGAGAACAUCUUCGGAUGCAGAGGAGGUUGGCUUCGGUGGCGCGAUAGCGCCAACGUCCUCAACCUCCAAUGCGACCCACCACAUGAUGGUGCCUGAAGAGCCUUGGUUUUUUG [C49U A50U A95G U96A A111G] . Output polymerase ribozyme fitness (log ratio): -7.1

Input GACCAAUCUGCCCUCAGAGCUCGAGAACAUCUUCGGAUGCAGAGGAGGCAGGCUUCGGUGGCGCGAUAGCGCCAACGUCCUCAACCUCCAAUGCAUCCCACCACAUGAUGAUUCCUGAAGAGCAUUGGUUUUUUG [G113U C124A] . Output polymerase ribozyme fitness (log ratio): -1.53

Input GACCAAUCUGCCCUCAGAGCUCGAGAACAUCUUCGGAUGCAGAGGAGGCAGGCUUCGGUGGCGCGAUAGCGCCAACGGCCUCAACCUCCAAUGCAUCCCACCACAUGAUGAUGCCUGAAGAGUCUUGGUUUUUUG [U78G C123U] . Output polymerase ribozyme fitness (log ratio): 0.876

Input GACCAAUUUGCCCUCAGAGCUCGAGAACAUCUUCGGAUGCAGAGGAGGCAGGCUUCGGUGGCGCGAUAGCGCCAACGUCCUCAACCUCCAACGCAUCCCACCACAUGAUGAUGCCUGAAGAGCCUUGGUUUUUUG [C8U U92C] . Output polymerase ribozyme fitness (log ratio): -0.788

Input GACCAAUCUGCCCUCAGAGCUCGAGAACAUCUUCGGAUGGAGAGGAGGCAGGCUUCGGUGGCGCGAUAGCGUCAACGUCCUCAACCUCCAAUGCAUCCCACCACAUGAUGAUGCCUGAAGAGCCUUGGUUUUUUG [C40G C72U] . Output polymerase ribozyme fitness (log ratio): -1.47

Input GACCAAUCUGCCCUCAGAGCUCGAGAACAUCUUCGGAUGCAGAGGAGGCAGGCUUCGGUGGCGCGAUAGCGCCAACGUCCUCAACCUCCAAUGCAUCCCACCACAUGAUGAUCCCUGAAGAACCUUGGUUUUUUU [G113C G122A G135U] . Output polymerase ribozyme fitness (log ratio): -4.5

Input GACCACACUGCCCUCAGAGCUCGAGAGCAUCUUCGGAUGCAGAGGAGGCAGGCUUCGGUGGCGCGAUAGCGCCAACGCCCUCAACCUCCAAUGCAUCCCACCACAUGAUGAUACCUGAAGAGCCUUGGUUUUUUG [A6C U7A A27G U78C G113A] . Output polymerase ribozyme fitness (log ratio): -1.35

Input GACCAAUCUGCCCUCAGAGCUCGAGAACAUCUUCGGAUGCAGAGGAGGCAGGCUUCGGUGGCGCGAUAGCGCCAACGUCCUCAACCUCCAAUGCAUCCCACCACAUGAUGCUGCCUGAAGACCCUUGGUUUUUUG [A111C G122C] . Output polymerase ribozyme fitness (log ratio): -1.39

Input GACCAAUCUGCCCUCAGAGCUCGAGAACAUCUUCGGAUGCAGAGGAGGCAGGCUUCGGUGGCGCGAUAGCGCCAACGUCCUCAACCUCCAAUGCAUCCCACCACAUGAUGCUGCCUGAUGAGCCUUGGUUCUUUG [A111C A119U U131C] . Output polymerase ribozyme fitness (log ratio): 0.0159

Input GACCAAUCUGCCCUCUGAGCUCGAGAACAUCUUCGGAUGCAUAGGAGGCAGGCUUCGGUGGCGCGAUAGCGCCAACGUCCUCAACCUCCAAUGCAUCCCACCACAUGAUGAUGCCUGAAGAGCCUUGGUUUUUUG [A16U G42U] . Output polymerase ribozyme fitness (log ratio): -2.52

Input GACCCAUCUGCCCUCAGAGCUCGAGAACAUCUUCGGAUGCAGAGGAGGCAGGCUUCGGUGGCGUGAUAGCGCCAACUUCCUCAACCUCCAAUGCAUCCCACCACAUGAUAAUGCCUGAAGAGCCUUGGUUUUUUG [A5C C64U G77U G110A] . Output polymerase ribozyme fitness (log ratio): -3.72

Input GACCAAUCGGCCCUCAGAGCUCGAGAACAUCUUCGGAUGCAGUGGAGGCAGUCUUCGGUGGCGCGAUAGCGUCAACGUCCUAAACCUCCAAUGCAUCCCACCACAUGAUGAUGCCUGAAGAGCCUUGGUUUUUUG [U9G A43U G52U C72U C82A] . Output polymerase ribozyme fitness (log ratio): -3
